Test system: OVCAR-8
Experiment: Antiproliferative activity against human OVCAR-8 cells assessed as inhibition of cell viability measured for 6 to 7 days by cell titer glo assay
Format: functional, cell-based
Property: pEC50
Value format note: pEC50 is -log10 of concentration (mol/L); just state the number.

The compound listed as CCn1cc(-c2ccnc3[nH]c(-c4cccc(CN(C)C)c4)cc23)c(-c2ccc(NC(=O)N(C)C)cc2)n1 has a reported pEC50 of 7.52

* * *

System: RL
Experiment: Antiproliferative activity against human RL cells assessed as inhibition of cell viability measured for 6 to 7 days by cell titer glo assay
Type: functional, cell-based
Property: EC50
# include the unit after the value

Kindly note the recorded EC50 for CCn1cc(-c2ccnc3[nH]c(-c4cccc(CN(C)C)c4)cc23)c(-c2ccc(NC(=O)N(C)C)cc2)n1 , which is 10 nM

* * *

System: EB-3
Assay: Antiproliferative activity against human EB-3 cells assessed as inhibition of cell viability measured for 6 to 7 days by cell titer glo assay
Assay type: functional, cell-based
Property: EC50

Record CCn1cc(-c2ccnc3[nH]c(-c4cccc(CN(C)C)c4)cc23)c(-c2ccc(NC(=O)N(C)C)cc2)n1 , field EC50: 7 nM

* * *

Tested on: JVM-3
Assay: Antiproliferative activity against human JVM-3 cells assessed as inhibition of cell viability measured for 6 to 7 days by cell titer glo assay
Type: functional, cell-based
Property: pEC50
Answer as the number alone; pEC50 is minus log10 of concentration in mol/L.

The recorded pEC50 for entry CCn1cc(-c2ccnc3[nH]c(-c4cccc(CN(C)C)c4)cc23)c(-c2ccc(NC(=O)N(C)C)cc2)n1 equals 8.70

* * *

Tested on: SU-DHL-16
Assay: Antiproliferative activity against human SU-DHL-16 cells assessed as inhibition of cell viability measured for 6 to 7 days by cell titer glo assay
Assay type: functional, cell-based
Property: pEC50
Units for pEC50: none; it is -log10 of a concentration expressed in mol/L.

For CCn1cc(-c2ccnc3[nH]c(-c4cccc(CN(C)C)c4)cc23)c(-c2ccc(NC(=O)N(C)C)cc2)n1 the molecule record lists pEC50 as 8.40

* * *

System: HCT-8
Test: Antiproliferative activity against human HCT-8 cells assessed as inhibition of cell viability measured for 6 to 7 days by cell titer glo assay
Format: functional, cell-based
Property: EC50 (nM)
Write down the numeric answer in nM and omit the unit.

Item: CCn1cc(-c2ccnc3[nH]c(-c4cccc(CN(C)C)c4)cc23)c(-c2ccc(NC(=O)N(C)C)cc2)n1 [GSK-1070916] | EC50: 38

* * *

Test system: JIYOYE
Assay: Antiproliferative activity against human JIYOYE cells assessed as inhibition of cell viability measured for 6 to 7 days by cell titer glo assay
Type: functional, cell-based
Property: pEC50
Answer as the number alone; pEC50 is minus log10 of concentration in mol/L.

The recorded pEC50 for entry CCn1cc(-c2ccnc3[nH]c(-c4cccc(CN(C)C)c4)cc23)c(-c2ccc(NC(=O)N(C)C)cc2)n1 equals 8.30

* * *

System: SR
Assay: Antiproliferative activity against human SR cells assessed as inhibition of cell viability measured for 6 to 7 days by cell titer glo assay
Type: functional, cell-based
Property: pEC50
Scale: pEC50 equals -log10([C]), with [C] in mol/L.

Kindly note the recorded pEC50 for CCn1cc(-c2ccnc3[nH]c(-c4cccc(CN(C)C)c4)cc23)c(-c2ccc(NC(=O)N(C)C)cc2)n1 , which is 8.52
